Dear all, this message contains MNEC results, target or system DNA gyrase (Escherichia coli) (UniProt P0AES6+P0AES4).
Use µg/mL as the unit, but write only the number.

itemsmiles=CCc1nn(-c2cc(Cl)cc(Cl)c2)c2nc(Oc3ccc4c(O)cc(=O)oc4c3)nc(N)c12 valueunit=µg/mL quantitativereadout=0.06
itemsmiles=CCc1nn(-c2cc(Cl)cc(Cl)c2)c2nc(Oc3ccc4c(O)c(NC(C)=O)c(=O)oc4c3)nc(N)c12 valueunit=µg/mL quantitativereadout=0.5

// next entry
Output MNEC of CCNc1nc(Sc2cccc(C(=O)O)c2)nc2c1c(CC)nn2-c1cc(Cl)cc(Cl)c1 8

###

- measuredTarget: DNA gyrase (Escherichia coli) (UniProt P0AES6+P0AES4)
- assayExplanation: Maximum non-effective concentration against in vitro Escherichia coli DNA gyrase supercoiling activity was determined by coupled spectrophotometric ATPase assay
- Assay type: protein-complex assay
// reported MNEC per item

Give MNEC only, for CCc1nn(-c2cc(Cl)cc(Cl)c2)c2nc(Oc3ccc(C)nc3)nc(N)c12 , using DNA gyrase (Escherichia coli) (UniProt P0AES6+P0AES4) data. < 16 µg/mL

Give MNEC only, for CCc1nn(-c2cc(Cl)cc(Cl)c2)c2nc(Oc3ccc4c(C)cc(=O)oc4c3)nc(N)c12 , using DNA gyrase (Escherichia coli) (UniProt P0AES6+P0AES4) data. > 125 µg/mL

Give MNEC only, for Cc1ccc(Oc2nc(N)n3ncc(-c4ccc(Cl)c(Cl)c4)c3n2)cn1 , using DNA gyrase (Escherichia coli) (UniProt P0AES6+P0AES4) data. < 16 µg/mL

###

- measuredTarget: DNA gyrase (Escherichia coli) (UniProt P0AES6+P0AES4)
// reported MNEC per item

Look over these answered cases.
itemsmiles=CCc1nn(-c2cc(Cl)cc(Cl)c2)c2nc(Oc3ccc(C)nc3)nc(N)c12 assayreadout=MNEC result="> 16 µg/mL"
itemsmiles=Cc1nn(-c2cc(Cl)cc(Cl)c2)c2nc(Oc3ccc4c(O)cc(=O)oc4c3)nc(N)c12 assayreadout=MNEC result="0.25 µg/mL"
itemsmiles=CCCCNC(=O)Nc1c(O)oc2cc(Oc3nc(N)c4c(CC)nn(-c5cc(Cl)cc(Cl)c5)c4n3)ccc2c1=O assayreadout=MNEC result="0.5 µg/mL"
itemsmiles=CCc1nn(-c2cc(Cl)cc(Cl)c2)c2nc(Sc3cccc(C(=O)O)c3)nc(N)c12 assayreadout=MNEC result="0.25 µg/mL"

// next entry
Give MNEC only, for CCc1nn(-c2cccc(F)c2)c2nc(Oc3ccc4c(O)cc(=O)oc4c3)nc(N)c12 , using DNA gyrase (Escherichia coli) (UniProt P0AES6+P0AES4) data. 1 µg/mL
